# Tested on: P 388 D.1 Makrophagen
# ASSAY METHOD TEXT: Inhibition of cholesterol ester formation in macrophages under conditioned human plasma LDL (after Huber et al. 1990)
# Format: cell-based
# EXPERIMENTAL PARAMETERS: Mus musculus, P388D1, 18 h, read-out: Hemmung der Cholesterinesterbildung in Macrophagen (P388D.1) IC₅₀
pIC50: −log10 of the molar value.
This section presents compounds with their documented pIC50 values.

COMPOUND	pIC50
CC(C)(C)c1cc(CNS(=O)(=O)c2ccc(Cl)cc2)cc(C(C)(C)C)c1O [Beispiel 2]	5.60
CC(C)c1cc(C(C)C)c(S(=O)(=O)NCc2cc(C(C)(C)C)c(O)c(C(C)(C)C)c2)c(C(C)C)c1 [Beispiel 5.10]	5.15
CC(C)(C)c1cc(CCNS(=O)(=O)c2ccc(F)cc2)cc(C(C)(C)C)c1O [Beispiel 5.28]	5.92

====

# System: Plasma-LDL
# ASSAY METHOD TEXT: Stabilisation of plasma LDL against Cu(II) oxidation: prolongation of the lag phase of diene formation (A 234)
# Format: biochemical, human
# EXPERIMENTAL PARAMETERS: 3 Moleküle Testsubstanz pro LDL-Partikel; LDL 125 »g Protein/ml, 10 »M CuCl₂, pH 8, 42° C
Label scheme for Stabilisierung von Plasma LDL: Verlängerung d. "lag-Phase" %: lower than 40% is not met, 40% and above is met.

COMPOUND	CLASS
CC(C)(C)c1cc(CCNS(=O)(=O)c2ccc(F)cc2)cc(C(C)(C)C)c1O [Beispiel 5.28]	not met
CC(C)(Sc1cc(C(C)(C)C)c(O)c(C(C)(C)C)c1)Sc1cc(C(C)(C)C)c(O)c(C(C)(C)C)c1 [Probucol, reference compound]	not met
CC(C)c1cc(C(C)C)c(S(=O)(=O)NCCc2cc(C(C)(C)C)c(O)c(C(C)(C)C)c2)c(C(C)C)c1 [Beispiel 5.17]	met
CC(Cc1cc(C(C)(C)C)c(O)c(C(C)(C)C)c1)NS(=O)(=O)C(C)C (stereo not shown) [Beispiel 5.31]	not met
CC(C)c1cc(C(C)C)c(S(=O)(=O)NCc2cc(C(C)(C)C)c(O)c(C(C)(C)C)c2)c(C(C)C)c1 [Beispiel 5.10]	met
CC(C)(C)c1cc(CNS(=O)(=O)c2ccc(Cl)cc2)cc(C(C)(C)C)c1O [Beispiel 2]	met
